experiment: in vivo; details: mouse, 1 mg/kg, read-out: Vss
Measured attribute: Vd (L/kg)
Kindly provide the numeric value in L/kg only, without the unit symbol.

Q: Can you look up the measured Vd of CC(=O)NC1C(OC2C(C)OC(OC3C=CC=CC=CC=CCCC=CC=CC(C)C(O)C(C)C(C)OC(=O)CC(O)CC(O)CC(O)CCC(O)C(O)CC4(O)CC(O)C(C(=O)O)C(C3)O4)C(O)C2N)OC(CO)C(O)C1O (stereo not shown) for me?
Result: 0.1

* * *

test: in vivo; conditions: male, SD, rat, plasma, iv, 0.5 mg/kg
Measured attribute: clearance (mL/min/kg)
Your answer is read as mL/min/kg, so omit the unit and give the number.

Q: // clearance lookup, key: C[C@@H]1[C@H](O)[C@@H](C)/C=C/C=C/C=C/C=C/C=C/C=C/C=C/[C@H](O[C@@H]2O[C@H](C)[C@@H](O)[C@H](N)[C@@H]2O)C[C@@H]2O[C@](O)(C[C@@H](O)C[C@@H](O)[C@H](O)CC[C@@H](O)C[C@@H](O)CC(=O)O[C@H]1C)C[C@H](O)[C@H]2C(=O)O [Amphotericin B, amphotericin B]
Result: 5
